Hey, just so you know, these numbers are from patent US11330999B2.

Assign T2 Value (s) H2O to each entry below.
Test: Thermal equilibrium T2 at high field (14.1T), CPMG
Assay type: physicochemical
Details: 100% H2O, 100 mM Tris pH 7.4
Response body: numeric value in s, unit text excluded.

// Input: N[C@@H](CC[13C]([15NH2])=O)C(=O)O [Compound 24, (5-13C, 5-15N) L-glutamine] . Output its T2 Value (s) H2O only. 3.35

// Input: N=[13C](N)NCCC[C@H](N)C(=O)O [Arginine ^13C, [6-^13C]-arginine] . Output its T2 Value (s) H2O only. 0.184

// Input: [15NH2][13C]([15NH2])=O [Urea ^13C, ^15N2, [^13C, ^15N2]-urea] . Output its T2 Value (s) H2O only. 20.12

// Input: N[C@@H](CC[13C](N)=O)C(=O)O [Glutamine ^13C, [5-^13C]-glutamine] . Output its T2 Value (s) H2O only. 0.354

// Input: N[13C](N)=O [Urea ^13C, [^13C]-urea] . Output its T2 Value (s) H2O only. 0.089

====

Test: Hyperpolarized T1 at 1T after dissolution in buffered H2O or D2O
Type: physicochemical
Details: dissolution in 100 mM Tris 1 mM EDTA pD 7.4 D2O
parameter: Hyperpolarized T1 Value (s) D2O
Response body: numeric value in s, unit text excluded.

// Input: N[C@@H](CC[13C](N)=O)C(=O)O [Glutamine ^13C, [5-^13C]-glutamine] . Output its Hyperpolarized T1 Value (s) D2O only. 34.1

// Input: N[13C](N)=O [Urea ^13C, [^13C]-urea] . Output its Hyperpolarized T1 Value (s) D2O only. 123.8

// Input: N[C@@H](CC[13C]([15NH2])=O)C(=O)O [Compound 24, (5-13C, 5-15N) L-glutamine] . Output its Hyperpolarized T1 Value (s) D2O only. 31.2

// Input: [15NH2][13C]([15NH2])=O [Urea ^13C, ^15N2, [^13C, ^15N2]-urea] . Output its Hyperpolarized T1 Value (s) D2O only. 115.9

// Input: N=[13C](N)NCCC[C@H](N)C(=O)O [Arginine ^13C, [6-^13C]-arginine] . Output its Hyperpolarized T1 Value (s) D2O only. 32.1

====

Experiment: Thermal equilibrium T1 at high field (14.1T), inversion recovery
Assay type: physicochemical
Settings: 100% H2O, 100 mM Tris pH 7.4
parameter: T1 Value (s) H2O
Response body: numeric value in s, unit text excluded.

// Input: N[C@@H](CC[13C](N)=O)C(=O)O [Glutamine ^13C, [5-^13C]-glutamine] . Output its T1 Value (s) H2O only. 10.66

// Input: [15NH2][13C]([15NH2])=O [Urea ^13C, ^15N2, [^13C, ^15N2]-urea] . Output its T1 Value (s) H2O only. 31.97

// Input: N=[13C](N)NCCC[C@H](N)C(=O)O [Arginine ^13C, [6-^13C]-arginine] . Output its T1 Value (s) H2O only. 6.62

// Input: N[13C](N)=O [Urea ^13C, [^13C]-urea] . Output its T1 Value (s) H2O only. 31.01

// Input: N[C@@H](CC[13C]([15NH2])=O)C(=O)O [Compound 24, (5-13C, 5-15N) L-glutamine] . Output its T1 Value (s) H2O only. 10.79
